Origin of measurements: patent US10124004B2

Please go through the items and note down their pIC50.
# TARGET: CDK4/cyclin D3 (Homo sapiens)
# Construct: purchased Carna Biosciences, Inc. QS S Assist CDK4/Cyclin D3_FP Kit
# Sequence (P11802 whole entry): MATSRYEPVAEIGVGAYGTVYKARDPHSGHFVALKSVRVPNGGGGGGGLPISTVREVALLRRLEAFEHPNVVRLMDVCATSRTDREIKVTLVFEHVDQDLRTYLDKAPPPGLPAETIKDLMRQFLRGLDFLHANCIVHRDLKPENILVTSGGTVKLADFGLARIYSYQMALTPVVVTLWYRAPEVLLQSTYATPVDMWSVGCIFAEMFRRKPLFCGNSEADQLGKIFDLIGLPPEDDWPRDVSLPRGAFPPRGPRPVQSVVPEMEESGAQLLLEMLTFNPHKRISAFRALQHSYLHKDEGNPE
# Sequence (P30281 whole entry partner): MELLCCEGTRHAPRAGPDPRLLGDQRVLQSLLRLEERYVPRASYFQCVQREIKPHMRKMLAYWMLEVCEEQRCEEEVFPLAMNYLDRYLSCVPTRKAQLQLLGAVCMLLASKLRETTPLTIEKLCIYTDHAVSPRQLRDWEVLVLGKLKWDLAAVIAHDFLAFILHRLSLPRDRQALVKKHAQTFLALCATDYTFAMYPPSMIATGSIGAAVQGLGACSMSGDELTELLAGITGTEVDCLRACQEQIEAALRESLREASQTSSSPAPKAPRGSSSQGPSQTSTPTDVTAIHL
# EXPERIMENT: Human CDK4/cyclin D3 inhibitory activity (QS S Assist CDK4/Cyclin D3_FP Kit, IMAP fluorescence polarization)
# Format: biochemical
# CONDITION LABEL: Human CDK4/cyclin D3 inhibitory activity; read-out: CDK4 Activity symbol
pIC50: −log10 of the molar value.

Reported pIC50 ( `CC(C)Nc1nc([C@@H](C)O)cc2cnc(Nc3ccc(N4CCNC(C)(C)C4=O)cn3)nc12` ) = 7.00 to 8.00

Reported pIC50 ( COC(C)c1cc2cnc(Nc3ccc(CN4CCNCC4)cn3)nc2c(NCCC2CCOCC2)n1 (centres unmarked) ) = > 8.00

Reported pIC50 ( CC(O)c1cc2cnc(Nc3ccc(N4CCNCC4)cn3)nc2c(NC2CCOC2)n1 (centres unmarked) ) = > 8.00

Reported pIC50 ( C[C@@H](O)c1cc2cnc(Nc3ccc(N4CCNCC4)nn3)nc2c(NC2CCCC2C(=O)O)n1 (some centres unmarked) ) = ≤ 7.00

Reported pIC50 ( `CC(C)Nc1nc(C(F)F)cc2cnc(Nc3ccc(CCCCO)cn3)nc12` ) = > 8.00

Reported pIC50 ( `CC(C)Nc1nc([C@@H](C)O)cc2cnc(Nc3ccc(CN4CCNCC4=O)cn3)nc12` ) = 7.00 to 8.00

Reported pIC50 ( `CO[C@H](C)c1cc2cnc(Nc3ccc(CN4CCNCC4)cn3)nc2c(NCC2CCOCC2)n1` ) = > 8.00

Reported pIC50 ( COC(C)c1cc2cnc(Nc3ccc(CN4CCNCC4)cn3)nc2c(NC2CCCCCC2)n1 (centres unmarked) ) = > 8.00
